assay: protein stability index of a GFP-peptide fusion (GPS, HEK-293T) (PSI 1-6); higher = more stable; settings: treatment: MLN4924 1 uM, 8 h; c terminus: a fixed tail appended;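 also: 24-mer peptide tiles fused after GFP, lentivirally expressed, FACS-sorted into six equal bins by GFP/DsRed ratio, decoded by Illumina sequencing, PSI is the read-weighted mean bin number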

sequence-data	protein stability index
ESLTEDEATQFLKQILDGVHYLHS [DAPK3]	3.29
WDRNRRRGGGAAGAGGGGSGAGGG [KLHDC10]	5.3
HRVKLTNSTLDPHGHLILHSMHKY [TBX6]	2.71
KDIQPYMRRMVATWMLEVCEEQKC [CCND2]	2.65

----------
assay: protein stability index of a GFP-peptide fusion (GPS, HEK-293T) (PSI 1-6); higher = more stable; conditions: treatment: DMSO; c terminus: a fixed tail appended
result-type: protein stability index

sequence-data	result-type	observed
TARRLLSQVRALDRFQVPTTEVNA [NFE2L1]	protein stability index	3.02
NKKAKRYLLHGLECVVAMHQAQLI [EIF5]	protein stability index	3.02
ESPDEMELDELLKEISRKRRSIRY [PTPRD]	protein stability index	3.05

----------
assay: protein stability index of a GFP-peptide fusion (GPS, HEK-293T) (PSI 1-6); higher = more stable; settings: treatment: DMSO; c terminus: a fixed tail appended

sequence-data	protein stability index
NITVVKGIRLSENVIDRMKESSPS [CHCHD3]	3.66
EEETVTTKHIHITQATETTTTRHK [CLINT1]	5.15
ENVLHFKAQGHGAKGDNVYEFHLE [HACD3]	3.57
CPAELRPQVPQPPSPAAVPRPPSN [TRAF3IP2]	5.18

----------
assay: protein stability index of a GFP-peptide fusion (GPS, HEK-293T) (PSI 1-6); higher = more stable; details: treatment: DMSO; c terminus: a fixed tail appended
protein stability index values for the sequences below.

sequence-data	protein stability index
MEDSPLPDLRDIELKLGRKVPESL [LURAP1L]	4.68
ESSQKYKEGKYIIELNHMIKDNGW [YPEL3]	3.04
QSGRHLQTHSNTIVVSLQSKLASM [STX5]	2.79
QWRIRNLPYPKDVYSVSVDQKERC [DPCD]	3.32
GWSKGFIGMHREMQVNPISKRMGP [RHOBTB1]	2.63
NKRLAKYRMRNVHPKPKLVRVLES [CLCN6]	3.1
QWLQSTSGSQRHMVGQKDSVILSV [TLE6]	2.12
CAGPLEDAVTIPCGHTFCRLCLPA [TRIM15]	2.69
IVFPEKLNGSVLPGSGAPARLLCR [ADAMTS4]	2.87
KELRKDYQGPGTRRLQEVLGVQTG [DYRK1B]	4.07
TRLLLQFTQPQQTSFALERNLRTQ [C8orf76]	2.33
KQIIRKHAQTFVALCATDVKFISN [CCND1]	2.26
ERSQEESPPGSTKRRKSMSGASPK [CDC25A]	5.48
SRAILQRVQAAAFGPGQTLLSSVH [ALKBH7]	2.72
YFGSFATVGLLWFAHHSLFLHVRK [TMEM175]	3.17
LQSTYATPVDMWSVGCIFAEMFRR [CDK4]	2.32
ATTSASDSLKPEQLDIEEEGRPGA [TFE3]	5.5

----------
protein stability index values for the sequences below.
test: protein stability index of a GFP-peptide fusion (GPS, HEK-293T) (PSI 1-6); higher = more stable; details: treatment: MLN4924 1 uM, 8 h; c terminus: a fixed tail appended
result-type: protein stability index

sequence-data	observed
LGDRLNVEVDAAPAVDLNQVLNET [KRT33B]	4.96
PSLRPRPASSISLPIGHLGCISLL [DMRTC1]	2.85
PGSLLCTVAASDPDTGDNARLTYS [PCDHGC5]	4
SSVECYNLETNEWRYVSSLPQPLA [KLHL14]	2.92
GYSLADWVCLAYFTSGFNAAALDY [SPACA3]	2.98
